Target: T1, human EphA7 (Homo sapiens, UniProt Q15375)
T1 construct: a protein of the extracellular region of each human Eph receptor fused with the SEAP protein and the His tag; made in house; host or cells: Expi293F cells (culture supernatant)
T1 sequence (Q15375 28-555 limits assumed): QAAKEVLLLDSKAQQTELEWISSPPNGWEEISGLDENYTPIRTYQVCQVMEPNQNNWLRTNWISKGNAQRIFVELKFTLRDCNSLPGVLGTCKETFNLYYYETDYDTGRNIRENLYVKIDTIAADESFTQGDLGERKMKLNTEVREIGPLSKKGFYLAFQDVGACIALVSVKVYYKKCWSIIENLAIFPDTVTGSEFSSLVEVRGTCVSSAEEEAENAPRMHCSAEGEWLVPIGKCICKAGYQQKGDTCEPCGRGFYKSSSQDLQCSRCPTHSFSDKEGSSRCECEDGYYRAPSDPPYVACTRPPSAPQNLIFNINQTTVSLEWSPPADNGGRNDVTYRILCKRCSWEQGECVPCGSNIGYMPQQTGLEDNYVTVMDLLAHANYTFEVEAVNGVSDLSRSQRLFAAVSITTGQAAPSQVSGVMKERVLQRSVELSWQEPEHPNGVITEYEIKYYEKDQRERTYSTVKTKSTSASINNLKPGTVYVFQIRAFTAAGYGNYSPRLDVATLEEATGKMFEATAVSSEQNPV
Assay: Selectivity ELISA of humanized antibodies for human Eph receptor
Format: binding
Details: coated protein 1 nM
Reported hEphA7-SEAP-: absorbance at 450 nm, percentage with respect to hEphA4-SEAP-His as 100% values follow for various molecules
Please state the figure in %; there is no need to write the unit.

Check out these entries, answers already filled in.
molecule	unit-abbreviation	value-reported
152 (antibody, V domains shown, synthetic humanized antibody heavy chain variable region sequence; synthetic humanized antibody light chain variable region sequence) VH: QVQLVQSGSELKKPGASVKVSCKASGYTFTDYSMHWVRQAPGQGLEWMGWINTETGEPTYAQGFTGRFVFSLDTSVSTAYLQISSLKAEDTAVYYCARIPLYYYGSRYWYFDVWGQGTTVTVSS VL: DIQMTQSPSSLSASVGDRVTITCRASENIYRNLAWYQQKPGKAPKLLLYAATNLADGVPSRFSGSGSGTDYTLTISSLQSEDFATYYCQHFWGTPWTFGQGTKVEIK	%	5.7
155 (antibody, V domains shown, synthetic humanized antibody heavy chain variable region sequence; synthetic humanized antibody light chain variable region sequence) VH: QIQLVQSGSELKKPGASVKVSCKASGYTFTDYSMHWVRQAPGQGLKWMGWINTETGEPTYADDFKGRFVFSLDTSVSTAYLQISSLKAEDTAVYYCARIPLYYYGSRYWYFDVWGQGTTVTVSS VL: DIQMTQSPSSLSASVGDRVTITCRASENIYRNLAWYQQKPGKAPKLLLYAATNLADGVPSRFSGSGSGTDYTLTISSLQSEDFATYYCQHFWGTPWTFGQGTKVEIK	%	5.6
81 (antibody, V domains shown, constant regions without entry; synthetic humanized antibody light chain variable region sequence; synthetic humanized antibody heavy chain variable region sequence) VL: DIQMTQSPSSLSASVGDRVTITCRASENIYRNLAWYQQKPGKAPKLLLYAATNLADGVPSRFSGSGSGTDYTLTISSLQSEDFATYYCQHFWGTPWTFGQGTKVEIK VH: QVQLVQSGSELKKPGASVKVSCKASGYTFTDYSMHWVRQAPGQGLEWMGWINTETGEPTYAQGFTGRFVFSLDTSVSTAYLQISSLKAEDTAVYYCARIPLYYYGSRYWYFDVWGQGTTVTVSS	%	5.2

Annotate the molecule 67 (antibody, V domains shown, synthetic humanized antibody heavy chain variable region sequence; synthetic humanized antibody light chain variable region sequence) VH: QIQLVQSGSELKKPGASVKVSCKASGYTFTDYSMHWVRQAPGQGLKWMGWINTETGEPTYAQGFTGRFVFSLDTSVSTAYLQISSLKAEDTAVYYCARIPLYYYGSRYWYFDVWGQGTTVTVSS VL: DIQMTQSPSSLSASVGDRVTITCRASENIYRNLAWYQQKPGKAPKLLVYAATNLADGVPSRFSGSGSGTDYTLTISSLQPEDFATYYCQHFWGTPWTFGQGTKVEIK with its measured hEphA7-SEAP-: absorbance at 450 nm, percentage with respect to hEphA4-SEAP-His as 100%. 4.7

Recall and state the measured hEphA7-SEAP-: absorbance at 450 nm, percentage with respect to hEphA4-SEAP-His as 100% for 77 (antibody, V domains shown, synthetic humanized antibody heavy chain variable region sequence; synthetic humanized antibody light chain variable region sequence) VH: QVQLVQSGSELKKPGASVKVSCKASGYTFTDYSMHWVRQAPGQGLEWMGWINTETGEPTYADDFKGRFVFSLDTSVSTAYLQISSLKAEDTAVYYCARIPLYYYGSRYWYFDVWGQGTTVTVSS VL: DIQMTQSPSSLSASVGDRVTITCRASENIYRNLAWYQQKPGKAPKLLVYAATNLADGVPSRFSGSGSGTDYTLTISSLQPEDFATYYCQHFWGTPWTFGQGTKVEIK . 4.3
